# Tested on: MOLM 13
# measurement description: Cell viability (CellTiter-Glo), 6-day compound treatment
# Format: cell-based, Human
# condition set: Homo sapiens, MOLM-13, 144 h, read-out: MOLM 13 Viability 6 d IC50
pIC50: −log10 of the molar value.

# compound, subject of test, pIC50
data = [
    ("C=CCC1(CC=C)C[C@@H]2SCC[C@H](NC(=O)[C@H](C)NC)C(=O)N2[C@@H]1C(=O)N[C@H]1c2ccccc2C[C@H]1OCC#CC#CCO[C@@H]1Cc2ccccc2[C@@H]1NC(=O)[C@H]1N2C(=O)[C@@H](NC(=O)[C@H](C)NC)CCS[C@H]2CC1(CC=C)CC=C [Compound 18n]", "MOLM 13", "6.00 to 7.00"),
    ("CN[C@@H](C)C(=O)N[C@H]1CCS[C@H]2CC(C)(C)[C@@H](C(=O)N[C@H](CCOCC#CC#CCOCC[C@@H](NC(=O)[C@H]3N4C(=O)[C@@H](NC(=O)[C@H](C)NC)CCS[C@H]4CC3(C)C)c3ccccc3)c3ccccc3)N2C1=O [Compound 18i]", "MOLM 13", "6.00 to 7.00"),
    ("CN[C@@H](C)C(=O)N[C@H]1CCS[C@H]2CC3(CC=CC3)[C@@H](C(=O)N[C@H]3c4ccccc4C[C@H]3OCC#CC#CCO[C@@H]3Cc4ccccc4[C@@H]3NC(=O)[C@H]3N4C(=O)[C@@H](NC(=O)[C@H](C)NC)CCS[C@H]4CC34CC=CC4)N2C1=O [Compound 18o]", "MOLM 13", "7.00 to 8.00"),
    ("CN[C@@H](C)C(=O)N[C@H]1CCS[C@H]2CC(C)(C)[C@@H](C(=O)N[C@H]3c4ccccc4C[C@H]3OCC#Cc3ccc(CO[C@@H]4Cc5ccccc5[C@@H]4NC(=O)[C@H]4N5C(=O)[C@@H](NC(=O)[C@H](C)NC)CCS[C@H]5CC4(C)C)cc3)N2C1=O [Compound 18e]", "MOLM 13", "6.00 to 7.00"),
]
